- Tested on: NCI-H841 complex tumor spheroid viability
- Measurement protocol: Anticancer human tumor NCI-H841 cell line growth inhibition;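 also: spheroids exposed to compounds for 7 days before readout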
- Experimental parameters: curve of first compound; second compound 31.6 µM
IC50 strictly less than 0.5 µM = 1 (yes). Otherwise 0 (no).

Consider the following illustrative entries.
[
  {
    "Molecule": "COc1cc(C)[nH]c(=O)c1CN1CCc2c(Cl)cc(C(OC)C3COC3)c(Cl)c2C1=O (configuration not stated) + Cn1nnc2c(C(N)=O)ncn2c1=O",
    "System": "NCI-H841 complex tumor spheroid viability",
    "Assigned category": "1 (yes)"
  },
  {
    "Molecule": "CC(C)n1c(=O)n(C)c2cnc3cc(F)c(-c4ccc(OCCCN5CCCCC5)nc4)cc3c21 + Cn1nnc2c(C(N)=O)ncn2c1=O",
    "System": "NCI-H841 complex tumor spheroid viability",
    "Assigned category": "0 (no)"
  },
  {
    "Molecule": "Cc1sc2c(c1C)C(c1ccc(Cl)cc1)=NC(CC(=O)Nc1ccc(O)cc1)c1nnc(C)n1-2 (configuration not stated) + Cn1nnc2c(C(N)=O)ncn2c1=O",
    "System": "NCI-H841 complex tumor spheroid viability",
    "Assigned category": "1 (yes)"
  }
]

Determine whether this molecule shows IC50 lower than 0.5 µM (ties excluded): COc1ccc([C@@H](O)c2cc(-c3ncnc4cc(N5CCOCC5)ccc34)c(F)cc2Cl)nn1 + Cn1nnc2c(C(N)=O)ncn2c1=O
0 (no)

Please determine if [2H]c1nc(C)nc([2H])c1-c1cc(NC[C@@H](C)c2cccc3c(C(=O)NC)ccnc23)ncn1 + Cn1nnc2c(C(N)=O)ncn2c1=O is below 0.5 µM in terms of IC50.
0 (no)

hey, is IC50 for Cn1ncnc1[C@H]1c2n[nH]c(=O)c3cc(F)cc(c23)N[C@@H]1c1ccc(F)cc1 + Cn1nnc2c(C(N)=O)ncn2c1=O lower than 0.5 µM or not?
1 (yes)

* * *

- Test system: NCI-H841 complex tumor spheroid viability
- Measurement protocol: Anticancer human tumor NCI-H841 cell line growth inhibition;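 also: spheroids exposed to compounds for 7 days before readout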;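 as to viability, T/C: 100% = DMSO vehicle control wells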
- Experimental parameters: second compound 0.000949 µM; first compound 3.16 µM; stronger effect = lower value
Parameter measured: viability, T/C

Known results for compounds:
[
  {
    "Compound": "COc1cc(C)[nH]c(=O)c1CN1CCc2c(Cl)cc(C(OC)C3COC3)c(Cl)c2C1=O (stereo unspecified) + COc1cc2c(cc1O)CCNC21CSC2c3c(OC(C)=O)c(C)c4c(c3C(COC1=O)N1C(O)C3Cc5cc(C)c(OC)c(O)c5C(C21)N3C)OCO4",
    "viability, T/C": "1.24%"
  },
  {
    "Compound": "[2H]c1nc(C)nc([2H])c1-c1cc(NC[C@@H](C)c2cccc3c(C(=O)NC)ccnc23)ncn1 + COc1cc2c(cc1O)CCNC21CSC2c3c(OC(C)=O)c(C)c4c(c3C(COC1=O)N1C(O)C3Cc5cc(C)c(OC)c(O)c5C(C21)N3C)OCO4",
    "viability, T/C": "3.35%"
  },
  {
    "Compound": "Cc1cc(C)c(CNC(=O)c2cc(-c3ccc(CN4CCOCC4)cc3)cc3c2cnn3C2CCCC2)c(=O)[nH]1 + COc1cc2c(cc1O)CCNC21CSC2c3c(OC(C)=O)c(C)c4c(c3C(COC1=O)N1C(O)C3Cc5cc(C)c(OC)c(O)c5C(C21)N3C)OCO4",
    "viability, T/C": "2.54%"
  },
  {
    "Compound": "CC(C)n1c(=O)n(C)c2cnc3cc(F)c(-c4ccc(OCCCN5CCCCC5)nc4)cc3c21 + COc1cc2c(cc1O)CCNC21CSC2c3c(OC(C)=O)c(C)c4c(c3C(COC1=O)N1C(O)C3Cc5cc(C)c(OC)c(O)c5C(C21)N3C)OCO4",
    "viability, T/C": "2.06%"
  },
  {
    "Compound": "COc1ccc([C@@H](O)c2cc(-c3ncnc4cc(N5CCOCC5)ccc34)c(F)cc2Cl)nn1 + COc1cc2c(cc1O)CCNC21CSC2c3c(OC(C)=O)c(C)c4c(c3C(COC1=O)N1C(O)C3Cc5cc(C)c(OC)c(O)c5C(C21)N3C)OCO4",
    "viability, T/C": "0.02%"
  }
]

// switching to the query compound
Entry CC1COCCN1c1cc(-c2ccnn2C)c2ccnc(-c3ccn[nH]3)c2n1 (stereo unspecified) + COc1cc2c(cc1O)CCNC21CSC2c3c(OC(C)=O)c(C)c4c(c3C(COC1=O)N1C(O)C3Cc5cc(C)c(OC)c(O)c5C(C21)N3C)OCO4 , viability, T/C reported as 0.06%
